organism: Rattus norvegicus; experiment: Open TG-GATES - Regimen: Single; type: toxicity, organism-based, Sprague-Dawley; design: regimen Single, gender Male, age 6 weeks; details: in vivo, po, 1000 mg/kg, 3 h, tissue Plasma, route gavage, dose level High
Label t for high-side GLC (at or above 200 mg/dL) and f for low-side GLC (below it).

Solved entries:
COMPOUND	CLASSIFICATION
COC1=CC(=O)C[C@@H](C)[C@]12Oc1c(Cl)c(OC)cc(OC)c1C2=O [GRISEOFULVIN]	f
CCOC(=O)CCC(=O)O[C@H]1[C@H](O[C@@H]2[C@@H](C)[C@H](O[C@H]3C[C@@](C)(OC)[C@@H](O)[C@H](C)O3)[C@@H](C)C(=O)O[C@H](CC)[C@@](C)(O)[C@H](O)[C@@H](C)C(=O)[C@H](C)C[C@@]2(C)O)O[C@H](C)C[C@@H]1N(C)C [ERYTHROMYCIN ETHYLSUCCINATE]	f
CC(C)OC(=O)C(C)(C)Oc1ccc(C(=O)c2ccc(Cl)cc2)cc1 [FENOFIBRATE]	f

## Input Hi, just wondering whether COc1ccc2[nH]c([S+]([O-])Cc3ncc(C)c(OC)c3C)nc2c1 (stereo not given) [OMEPRAZOLE] shows GLC of 200 mg/dL or higher.
## Output t

###

species on record: Rattus norvegicus; assay: Open TG-GATES - Regimen: Single; assay type: toxicity, organism-based, Sprague-Dawley; parameters: regimen Single, gender Male, age 6 weeks; details: in vivo, po, 0 mg/kg, 3 h, tissue Blood, route gavage, dose level Control
OBSERVABLE: APTT

COMPOUND	APTT
NNC(=O)c1ccncc1 [ISONIAZID]	18.5 s

## Input Dear colleague, please send me the reported APTT for CN1C(=O)CN=C(c2ccccc2)c2cc(Cl)ccc21 [DIAZEPAM] when you can.
## Output 15.9 s

## Input Return value of APTT for input COC1=CC(=O)C[C@@H](C)[C@]12Oc1c(Cl)c(OC)cc(OC)c1C2=O [GRISEOFULVIN] , no commentary.
## Output 21.6 s

## Input Fill in reported APTT for this entry: CCOc1ccc(NC(=O)CC(C)O)cc1 (stereo not drawn) [BUCETIN]
## Output 14.7 s

## Input For CN(C)CCN(Cc1cccs1)c1ccccn1 , write its APTT.
## Output 20.4 s

## Input Hello, please tell me recorded APTT for this one: Cc1ccc(C)c(OCCCC(C)(C)C(=O)O)c1 [GEMFIBROZIL]
## Output 16.9 s

## Input Give the reported APTT for this compound. COc1ccc2[nH]c([S+]([O-])Cc3ncc(C)c(OC)c3C)nc2c1 (stereo not drawn) [OMEPRAZOLE]
## Output 20.5 s

## Input Read off the recorded APTT for COc1cc2c(c(OC)c1OC)-c1ccc(OC)c(=O)cc1[C@@H](NC(C)=O)CC2 [COLCHICINE]
## Output 16.2 s

###

organism: Rattus norvegicus; assay: Open TG-GATES - Regimen: Daily Repeat; assay type: toxicity, organism-based, Sprague-Dawley; parameters: regimen Daily Repeat, gender Male, age 6 weeks; conditions: in vivo, po, 0 mg/kg, 72 h, tissue Blood, route gavage, dose level Control, time 3 day
OBSERVABLE: MCV (fL)
State just the number; it will be interpreted in fL.

Worked examples follow.
COMPOUND	UNIT_ABBREV	MCV
CN(C)CCCN1c2ccccc2CCc2ccccc21 [IMIPRAMINE]	fL	63.2
CN1C(=O)CN=C(c2ccccc2)c2cc(Cl)ccc21 [DIAZEPAM]	fL	64.4
CC1=C(/C=C/C(C)=C/C=C/C(C)=C/CO)C(C)(C)CCC1 [RETINOL]	fL	62
CCOc1ccc(NC(=O)CC(C)O)cc1 (stereo unspecified) [BUCETIN]	fL	64.1
CCOC(=O)CCC(=O)O[C@H]1[C@H](O[C@@H]2[C@@H](C)[C@H](O[C@H]3C[C@@](C)(OC)[C@@H](O)[C@H](C)O3)[C@@H](C)C(=O)O[C@H](CC)[C@@](C)(O)[C@H](O)[C@@H](C)C(=O)[C@H](C)C[C@@]2(C)O)O[C@H](C)C[C@@H]1N(C)C [ERYTHROMYCIN ETHYLSUCCINATE]	fL	63

As a next step, examine the compound that follows.
## Input Provide MCV value for the following compound: CCCNC(=O)NS(=O)(=O)c1ccc(Cl)cc1 [CHLORPROPAMIDE]
## Output 66.6

Origin of values: ChEMBL document CHEMBL3885861
